Provide the reported IC50 of each item.
molecular target: human Nav1.7 (Homo sapiens, UniProt Q15858); construct: expressed in transfected cells; host or cells: HEK293; experiment: Nav 1.7 IWB In Vitro Assay (IonWorks Barracuda); type: cell-based; settings: HEK293 cells stably transfected with human Nav 1.7; IonWorks Barracuda population patch-clamp; cells clamped to −20 mV for 4 minutes with compound; 26th pulse; read-out: hNav1.7 IWB IC50
Sequence (Q15858 whole entry): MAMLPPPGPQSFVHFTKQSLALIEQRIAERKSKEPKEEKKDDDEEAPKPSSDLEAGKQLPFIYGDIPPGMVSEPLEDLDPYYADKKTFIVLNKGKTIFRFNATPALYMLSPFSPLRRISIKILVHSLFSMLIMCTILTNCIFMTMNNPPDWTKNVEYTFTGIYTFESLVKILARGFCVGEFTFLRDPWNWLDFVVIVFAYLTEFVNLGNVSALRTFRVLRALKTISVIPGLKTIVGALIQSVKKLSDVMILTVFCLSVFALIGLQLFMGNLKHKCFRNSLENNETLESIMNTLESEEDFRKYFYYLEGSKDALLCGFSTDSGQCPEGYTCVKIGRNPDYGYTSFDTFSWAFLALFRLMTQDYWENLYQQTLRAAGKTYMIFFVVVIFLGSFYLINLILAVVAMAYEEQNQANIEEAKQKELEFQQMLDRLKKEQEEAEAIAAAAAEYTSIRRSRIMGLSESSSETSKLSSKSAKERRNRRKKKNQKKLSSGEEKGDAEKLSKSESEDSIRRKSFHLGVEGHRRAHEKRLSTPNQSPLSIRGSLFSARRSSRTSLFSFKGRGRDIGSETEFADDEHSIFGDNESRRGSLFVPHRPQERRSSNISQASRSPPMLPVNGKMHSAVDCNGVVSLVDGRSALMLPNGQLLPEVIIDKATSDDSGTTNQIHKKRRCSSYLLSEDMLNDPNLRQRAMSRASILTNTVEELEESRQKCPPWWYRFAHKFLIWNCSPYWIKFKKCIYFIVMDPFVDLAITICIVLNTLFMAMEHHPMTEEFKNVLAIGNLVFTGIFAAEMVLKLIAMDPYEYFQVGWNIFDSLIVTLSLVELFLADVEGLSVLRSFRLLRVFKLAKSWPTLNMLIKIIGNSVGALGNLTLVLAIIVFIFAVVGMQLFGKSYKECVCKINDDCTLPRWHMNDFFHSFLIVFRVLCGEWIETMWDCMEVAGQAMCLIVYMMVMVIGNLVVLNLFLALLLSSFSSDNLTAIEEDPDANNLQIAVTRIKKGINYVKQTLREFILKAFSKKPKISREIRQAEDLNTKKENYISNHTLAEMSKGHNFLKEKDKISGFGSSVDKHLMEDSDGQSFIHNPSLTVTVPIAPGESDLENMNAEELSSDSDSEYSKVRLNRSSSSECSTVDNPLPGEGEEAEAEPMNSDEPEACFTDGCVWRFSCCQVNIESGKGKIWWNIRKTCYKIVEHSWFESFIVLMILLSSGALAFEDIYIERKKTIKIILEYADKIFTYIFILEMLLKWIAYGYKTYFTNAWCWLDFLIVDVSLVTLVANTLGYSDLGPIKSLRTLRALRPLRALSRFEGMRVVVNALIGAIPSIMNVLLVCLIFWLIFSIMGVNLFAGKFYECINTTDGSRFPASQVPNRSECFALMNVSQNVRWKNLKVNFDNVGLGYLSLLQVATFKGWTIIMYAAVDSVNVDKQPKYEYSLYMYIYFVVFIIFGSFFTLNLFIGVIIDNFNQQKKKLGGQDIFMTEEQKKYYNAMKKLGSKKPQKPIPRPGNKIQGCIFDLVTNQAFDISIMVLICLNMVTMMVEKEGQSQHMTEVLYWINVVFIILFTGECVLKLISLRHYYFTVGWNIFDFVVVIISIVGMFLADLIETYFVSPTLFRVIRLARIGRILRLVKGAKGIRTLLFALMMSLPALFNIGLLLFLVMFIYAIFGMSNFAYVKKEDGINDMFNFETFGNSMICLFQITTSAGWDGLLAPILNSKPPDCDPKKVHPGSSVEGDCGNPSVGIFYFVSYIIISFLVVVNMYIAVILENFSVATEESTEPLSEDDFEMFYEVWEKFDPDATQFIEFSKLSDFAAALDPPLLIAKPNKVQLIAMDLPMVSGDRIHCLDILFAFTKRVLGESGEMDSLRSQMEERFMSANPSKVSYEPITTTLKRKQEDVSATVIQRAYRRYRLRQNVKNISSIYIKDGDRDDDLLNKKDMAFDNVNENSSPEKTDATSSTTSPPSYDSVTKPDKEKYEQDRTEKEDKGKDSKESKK
Could you give me the number in µM? Just the number is fine.

input: GET /values?readout=IC50&system=human Nav1.7 (Homo sapiens, UniProt Q15858)&item= COc1cc(-c2ccc(F)c(C)c2)c(C)cc1-n1c2c(ccc1=O)CN(S(=O)(=O)Nc1cccnn1)CC2 (single isomer, unassigned) [Example 93-P]
output: 0.0218

input: Given the entry COc1cc(-c2cc(F)cc(Cl)c2)ccc1-n1c2c(ccc1=O)CN(S(=O)(=O)Nc1cccnn1)CC2 (single isomer, unassigned) [Example 8-M] , what IC50 was observed with human Nav1.7 (Homo sapiens, UniProt Q15858)?
output: 2.95

input: # query: IC50 | item COc1cc(Br)c(F)cc1-n1c2c(ccc1=O)CN(S(=O)(=O)Nc1ncccn1)CC2 (racemic) | system: human Nav1.7 (Homo sapiens, UniProt Q15858)
output: 4.24

input: API: value(readout=IC50, system=human Nav1.7 (Homo sapiens, UniProt Q15858)) for record COc1cc(-c2ccc(F)c(C)c2)c(F)cc1-n1c2c(ccc1=O)CN(S(=O)(=O)Nc1ccon1)CC2 (single isomer, unassigned) [Example 22-P]
output: 0.008

input: Missing value: IC50, human Nav1.7 (Homo sapiens, UniProt Q15858), entry COc1cc(-c2ccc(C)c(F)c2)c(F)cc1-n1c2c(ccc1=O)CN(S(=O)(=O)Nc1ccon1)CC2 (single isomer, unassigned) [Example 21-P] . Fill in?
output: 0.0095

input: What is its IC50 for human Nav1.7 (Homo sapiens, UniProt Q15858)? Entry: COc1cc(-c2ccc(Cl)c(C)c2)c(F)cc1-n1c2c(ccc1=O)CN(S(=O)(=O)Nc1cccnn1)CC2 (racemic) [Example 33-(Rac)]
output: 0.0261

input: Item "COc1cc(-c2cccc(C3CC3)c2)c(F)cc1-n1c2c(ccc1=O)CN(S(=O)(=O)Nc1cccnn1)CC2" with human Nav1.7 (Homo sapiens, UniProt Q15858) - IC50?
output: 0.0078

input: // map COc1cc(-c2cc(F)cc(Cl)c2)ccc1-n1c2c(ccc1=O)CN(S(=O)(=O)Nc1ccon1)CC2 (racemic) [7-(Rac)] to recorded IC50 (system: human Nav1.7 (Homo sapiens, UniProt Q15858))
output: 0.0167

input: Tell me reported IC50 for COc1cc(-c2cccc(C(F)(F)F)c2)c(F)cc1-n1c2c(ccc1=O)CN(S(=O)(=O)Nc1ccon1)CC2 (racemic) [Example 16-(Rac)] , tested with human Nav1.7 (Homo sapiens, UniProt Q15858).
output: 0.0053

input: Request: IC50, test system human Nav1.7 (Homo sapiens, UniProt Q15858), entry COc1cc(-c2cc(F)cc(Cl)c2)c(F)cc1-n1c2c(ccc1=O)CN(S(=O)(=O)Nc1ncns1)CC2 (single isomer, unassigned) [Example 5-P]
output: 0.0015

input: Hello, I am looking for reported IC50 with human Nav1.7 (Homo sapiens, UniProt Q15858) for COc1cc(-c2cc(OC)c(-n3c4c(ccc3=O)CN(S(=O)(=O)Nc3ccon3)CC4)cc2F)ccc1C (racemic) [Example 58-(Rac)] . Could you help?
output: 0.0241

input: Lab note: need IC50 with human Nav1.7 (Homo sapiens, UniProt Q15858) for entry COc1cc(-c2cc(F)cc(Cl)c2)c(F)cc1-n1c2c(ccc1=O)CN(S(=O)(=O)Nc1ccnc(C)n1)CC2 (single isomer, unassigned) [Example 6-M] , please look it up.
output: 8.82

input: Form field - read-out: IC50; system: human Nav1.7 (Homo sapiens, UniProt Q15858); submitted item: "COc1cc(-c2cccc(Cl)c2)c(F)cc1-n1c2c(ccc1=O)CN(S(=O)(=O)Nc1cccnn1)CC2"
output: 0.0086
